# SYSTEM UNDER TEST: human ALX receptor (Homo sapiens, UniProt P25090)
# Construct: expressed in transfected cells; host or cells: HEK293 (HEK293-hALXR-Gα16)
# Sequence (P25090 whole entry): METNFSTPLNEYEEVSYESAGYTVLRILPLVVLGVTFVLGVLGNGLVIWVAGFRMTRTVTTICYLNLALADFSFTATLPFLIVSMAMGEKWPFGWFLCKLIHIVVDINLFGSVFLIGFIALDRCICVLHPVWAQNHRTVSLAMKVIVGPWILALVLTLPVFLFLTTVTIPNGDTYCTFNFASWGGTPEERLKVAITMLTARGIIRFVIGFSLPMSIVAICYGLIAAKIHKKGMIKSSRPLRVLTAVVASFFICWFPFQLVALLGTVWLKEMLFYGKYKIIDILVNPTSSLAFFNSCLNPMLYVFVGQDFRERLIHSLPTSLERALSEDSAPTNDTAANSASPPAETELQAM
# PROTOCOL DESCRIPTION: Intracellular calcium measurements (FLIPR), agonistic activity in HEK293-hALXR-Gα16 cells
# Assay type: cell-based
# TEST SETTINGS: Fluo-4 calcium FLIPR, normalized to WKYMVm 10 nM
Recorded EC50 determines the group label, using low-valued: < 20 nM; mid-valued: ≥ 20 nM and < 700 nM; high-valued: ≥ 700 nM

Task: Form field 'band' for Cc1nn(C)c(Cl)c1C(=O)NC[C@H]1[C@H](C(=O)Nc2ccc(Br)cc2)[C@@H]2C=C[C@H]1C21CC1 (racemic) [Example 190]
Output: high-valued

Task: What do we get for CC(=O)c1ccc(NC(=O)[C@H]2[C@H](C(=O)NCCCCN3CCCC3)[C@H]3C=C[C@@H]2C32CC2)cc1 (racemic) [Example 192] ?
Output: mid-valued

Task: What do we get for O=C(NCCN1CCNC1=O)[C@H]1[C@H](C(=O)Nc2ccc(Br)cc2)[C@@H]2C=C[C@H]1C21CC1 (racemic) [Example 29] ?
Output: low-valued

Task: What do we get for O=C(NCCCCN1CCCC1)[C@H]1[C@H](C(=O)Nc2ncc(Br)s2)[C@@H]2C=C[C@H]1C21CC1 (racemic) [Example 120] ?
Output: low-valued

Task: What do we get for COc1ccc(NC(=O)[C@H]2[C@H](C(=O)NCCC(=O)O)[C@H]3C=C[C@@H]2C32CC2)cc1 [Example 287] ?
Output: mid-valued

Task: What do we get for COCC(Cc1ccccc1)NC(=O)C1C(C(=O)Nc2ccc(Br)cc2)C2C=CC1C21CC1 (stereo not drawn) [Example 100] ?
Output: high-valued

Task: What do we get for COc1ccc(CNC(=O)[C@H]2[C@H](C(=O)NCCCCN3CCCC3)[C@H]3C=C[C@@H]2C32CC2)c(OC)c1 (racemic) [Example 376] ?
Output: high-valued

Task: What do we get for CC(C)C(=O)NC[C@H]1[C@H](C(=O)Nc2ccc(Br)cc2)[C@@H]2C=C[C@H]1C21CC1 (racemic) [Example 172] ?
Output: mid-valued

Task: What do we get for Cc1cc(C(=O)NC[C@H]2[C@H](C(=O)Nc3ccc(Br)cc3)[C@@H]3C=C[C@H]2C32CC2)nn1C (racemic) [Example 178] ?
Output: mid-valued
